Molecular target: T1, hSEMA4D ECD-His (His-tagged human SEMA4D protein extracellular domain, Met22-Arg734) (human, UniProt Q92854 22-734)
T1 construct: Expressed in CHO-S cells, purified on Ni column; also called protein immunogen; immunogen A; not shown: His tag of the pCP vector
T1 sequence: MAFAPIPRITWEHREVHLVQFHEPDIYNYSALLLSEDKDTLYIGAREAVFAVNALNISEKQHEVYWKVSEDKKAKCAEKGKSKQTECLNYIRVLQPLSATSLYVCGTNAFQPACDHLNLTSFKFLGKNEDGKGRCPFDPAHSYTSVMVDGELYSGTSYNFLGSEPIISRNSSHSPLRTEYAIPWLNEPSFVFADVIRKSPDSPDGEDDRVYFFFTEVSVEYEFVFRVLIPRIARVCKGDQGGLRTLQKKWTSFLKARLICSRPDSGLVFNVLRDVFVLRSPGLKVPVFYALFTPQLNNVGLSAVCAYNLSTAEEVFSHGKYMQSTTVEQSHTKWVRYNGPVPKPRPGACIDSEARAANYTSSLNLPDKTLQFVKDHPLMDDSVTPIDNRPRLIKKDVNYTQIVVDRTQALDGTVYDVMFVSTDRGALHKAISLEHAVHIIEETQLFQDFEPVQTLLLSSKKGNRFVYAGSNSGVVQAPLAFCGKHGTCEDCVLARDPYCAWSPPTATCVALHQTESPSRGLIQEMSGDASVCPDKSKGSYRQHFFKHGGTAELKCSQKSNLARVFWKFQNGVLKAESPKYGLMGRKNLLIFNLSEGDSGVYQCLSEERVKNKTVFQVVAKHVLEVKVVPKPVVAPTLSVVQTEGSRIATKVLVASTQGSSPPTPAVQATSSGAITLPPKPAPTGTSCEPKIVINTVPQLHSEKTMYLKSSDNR
Experiment: ELISA, coated hSEMA4D ECD-His; Ab 0.267 nM
assay-endpoint: OD450 nm
A bare number is all that is needed in reply.

Exercise: Given 42B7G2 (antibody, V domains shown, Mouse monoclonal antibody purified from hybridoma supernatant on protein A) VH: QVQLQQSGAELARPGASVKLSCKASGYTFTDYGISWVKQRTGQGLEWIGEIYLRNDNSYYNEKFKGKATLTADKSSNTAYMELRSLTSEDSAVYFCARWGDHGNNYEDAMDYWGQGTSVTVSS VL: DIVLTQSPASLAMSLGKRATISCRASESVSIIGSNLIHWYQQKPGQPPKLLIYHASNLETGVPARFSGSGSRTDFTLTIDPVEEDDVAIYYCLQSRKVPYTFGGGTKLEIK , state its recorded OD450 nm.
Solution: 1.4
